- System: Cryptococcus neoformans
- run_parameters: Concentration 32 ug.mL-1; ASSAY_TEST Inhibition of Fungal Growth; detection method Resazurin; Absorption (OD600-OD570); plate type 384well; NBS; CORNING #3640
- Description: Antifungal activity against Cryptococcus neoformans H99 ATCC 208821 (CO-ADD:FG_002); MIC in YNB media using NBS plates, by Resazurin OD(600-570)
Entries with a potency or affinity are not part of this list.
Think of -10% as a floor: if Inhibition stands on it or above, it is criterion met; beneath it, criterion not met.

Challenge: Please tell me: is the compound C=Cc1ccc(CN(c2ccc3c(c2)OCO3)S(=O)(=O)c2ccc3nncn3c2)cc1 at or over -10% in terms of Inhibition?
Response given: criterion met

----------
- Tested on: Candida albicans
- run_parameters: Concentration 32 ug.mL-1; ASSAY_TEST Inhibition of Fungal Growth; detection method Absorption (OD530)
- Description: Antifungal activity against Candida albicans ATCC 90028 (CO-ADD:FG_001); MIC in YNB media using NBS plates, by OD630
Entries with a potency or affinity are not part of this list.
test_readout: Inhibition (%)
Supply the numeric figure in %, leaving out any unit text.

Sample answers from the record:
COc1cccc(NC(=O)Cn2nc3ccc(SCc4ccc(Cl)cc4)nn3c2=O)c1 = 11.57
Cc1ccccc1Oc1nccn2c(=O)n(CC(=O)Nc3ccc(F)cc3F)nc12 = -0.38
COc1ccc(CN(c2cc(C)cc(C)c2)S(=O)(=O)c2cccn3cnnc23)cc1F = 0.54

Challenge: State measured Inhibition of the molecule O=C(Cn1nc2c(Oc3ccccc3)nccn2c1=O)Nc1ccc2c(c1)OCO2 with Candida albicans.
Response given: 2.95

Challenge: Lab note: Candida albicans assay, enter Inhibition for CC(=O)c1ccc(NC(=O)Cn2nc3ccc(-c4ccc(C)cc4)nn3c2=O)cc1 here
Response given: 4.12

----------
- Test system: Klebsiella pneumoniae
- run_parameters: Concentration 32 ug.mL-1;; ASSAY_TEST Inhibition of Bacterial Growth; detection method Absorption (OD600); MEDIA CAMHB; plate type 384well; NBS; CORNING #3640; time 18 hr
- Description: Antibacterial activity against Klebsiella pneumoniae MDR ATCC 70063 (CO-ADD:GN_003); MIC in CAMBH media using NBS plates, by OD(600)
Entries with a potency or affinity are not part of this list.
test_readout: Inhibition (%)
Expressed in %, but write only the number.

Here are 5 molecules together with their reported answers.
COc1ccc(NC(=O)Cn2nc3nc(N4CCOCC4)ccn3c2=O)cc1F = 8.85
Cc1nnc2ccc(S(=O)(=O)N(Cc3cccc(F)c3)c3cccc(F)c3)cn12 = 2.6
O=c1c2sccc2n2c(=O)n(Cc3cccc(Br)c3)nc2n1Cc1cccs1 = -22.43
COc1ccc(NC(=O)Cn2nc3nc(N4CCCCCC4)ccn3c2=O)cc1Cl = 8.5
CC(=O)c1ccc(NC(=O)Cn2nc3ccc(Sc4ccccc4)nn3c2=O)cc1 = -6.33

Note: attention shifts to another entry.
Challenge: Quickly give me recorded Inhibition for Cc1ccc(Oc2nccn3c(=O)n(CC(=O)Nc4ccc(Br)cc4F)nc23)cc1
Response given: 2.41

----------
Quick reference for Inhibition among some compounds
- System: Candida albicans
- run_parameters: Concentration 32 ug.mL-1; ASSAY_TEST Inhibition of Fungal Growth; detection method Absorption (OD530)
Potency and affinity values are given separately.
The number alone won't do; follow it with the unit.

Cc1cccc(NC(=O)CSc2nnc3c4cc(-c5ccc(F)cc5)nn4ccn23)c1C = 1.75%
O=C(Cn1nc2c(Oc3ccc(Cl)cc3)nccn2c1=O)Nc1ccc2c(c1)OCO2 = 2.32%
CSc1ccc(CNC(=O)Cn2nc3c(N4CCN(c5ccccc5)CC4)nccn3c2=O)cc1 = 1.95%
COc1ccc(C)cc1NC(=O)Cn1nc2cc(C)nc(Nc3ccc(F)cc3)n2c1=O = 2.84%
COc1cccc(Sc2nc3ccccc3n3c(=O)n(CC(=O)Nc4ccccc4)nc23)c1 = 1.24%

Challenge: Under Candida albicans: report Inhibition of O=C(Cn1nc2c(N3CCOCC3)nccn2c1=O)NCc1cccc(C(F)(F)F)c1 .
Response given: 5.12%

Challenge: Look up and report Inhibition, with Candida albicans as system, for Cc1ccc(N(Cc2ccc(F)cc2)S(=O)(=O)c2ccc3nnc(C)n3c2)cc1
Response given: 1.54%

Challenge: Give Inhibition; test system Candida albicans; compound CC1CCN(C(=O)Cn2nc3n(Cc4cccs4)c(=O)c4sccc4n3c2=O)CC1
Response given: 6.15%

Challenge: # assay system Candida albicans: give Inhibition of CCCN(C)c1nccn2c(=O)n(CC(=O)Nc3ccc(F)cc3)nc12
Response given: 1.98%

Challenge: State the measured Inhibition (Candida albicans) of CCc1cccc(C)c1NC(=O)CSc1nnc2ccc(C(=O)Nc3cccc(F)c3)cn12
Response given: 1.09%

Challenge: State Inhibition (Candida albicans) of O=C(CSc1nnc2ccc(C(=O)NCc3ccccc3)cn12)Nc1ccccc1Br .
Response given: 5.15%

Challenge: Please look at Cn1c(=O)c2sccc2n2c(=O)n(Cc3cccc(Br)c3)nc12 and tell me its recorded Inhibition on Candida albicans.
Response given: 10.92%

Challenge: Please report Inhibition with Candida albicans for item CCCCOc1ccc(-c2cc3c4nnc(SCC(=O)N(CC)c5ccccc5)n4ccn3n2)cc1 .
Response given: 5.05%

Challenge: Fill in Inhibition for CCN(C(=O)Cn1nc2cc(C)nc(Nc3ccc(C)c(F)c3)n2c1=O)c1ccccc1 tested with Candida albicans.
Response given: 0.56%

Challenge: Consider the compound COc1ccc(NC(=O)c2ccc3nn(CC(=O)N4CCN(c5ccccc5)CC4)c(=O)n3c2)cc1 tested on Candida albicans; state its Inhibition.
Response given: 1.58%

Challenge: Param request: Inhibition | system Candida albicans | item Cc1nnc2c(=O)n(CC(=O)Nc3ccc(Br)cc3)c3ccccc3n12
Response given: 2.53%

Challenge: Please report the measured Inhibition for O=c1c2sccc2n2c(=O)n(Cc3c(F)cccc3Cl)nc2n1CCc1ccccc1 tested on Candida albicans.
Response given: 1.94%
